Data provenance: the supplement of paper PMC5998384

- System: HeLa Kyoto;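 further: synchronized HeLa Kyoto cells, proteins quantified by TMT10plex mass spectrometry, three biological replicates, mitosis taken 0.5 h after nocodazole release, G1/S directly after double thymidine block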
- PROTOCOL_SUMMARY: thermal stability score vs G1/S (z-score of summed log2 fold changes over temperatures); higher = more thermally stable than in G1/S
- MEASUREMENT_SETUP: cell cycle stage: early G1 (4.5 h after nocodazole release)
# thermal stability score >= -0.6 gives condition met, anything below gives condition not met

Qu. State whether the measured thermal stability score reaches -0.6, counting equality as reaching it, for MAVESRVTQEEIKKEPEKPIDREKTCPLLLRVFTTNNGRHHRMDEFSRGNVPSSELQIYTWMDATLKELTSLVKEVYPEARKKGTHFNFAIVFTDVKRPGYRVKEIGSTMSGRKGTDDSMTLQSQKFQIGDYLDIAITPPNRAPPPSGRMRPY [SAP18]
Ans. condition met

Qu. State whether the measured thermal stability score reaches -0.6, counting equality as reaching it, for MAAPAVSGLSRQVRCFSTSVVRPFAKLVRPPVQVYGIEGRYATALYSAASKQNKLEQVEKELLRVAQILKEPKVAASVLNPYVKRSIKVKSLNDITAKERFSPLTTNLINLLAENGRLSNTQGVVSAFSTMMSVHRGEVPCTVTSASPLEEATLSELKTVLKSFLSQGQVLKLEAKTDPSILGGMIVRIGEKYVDMSVKTKIQKLGRAMREIV [ATP5O]
Ans. condition not met

Qu. State whether the measured thermal stability score reaches -0.6, counting equality as reaching it, for MNIMDFNVKKLAADAGTFLSRAVQFTEEKLGQAEKTELDAHLENLLSKAECTKIWTEKIMKQTEVLLQPNPNARIEEFVYEKLDRKAPSRINNPELLGQYMIDAGTEFGPGTAYGNALIKCGETQKRIGTADRELIQTSALNFLTPLRNFIEGDYKTIAKERKLLQNKRLDLDAAKTRLKKAKAAETRNSSEQELRITQSEFDRQAEITRLLLEGISSTHAHHLRCLNDFVEAQMTYYAQCYQYMLDLQKQLGSFPSNYLSNNNQTSVTPVPSVLPNAIGSSAMASTSGLVITSPSNLSDLKECSGSRKARVLYDYDAANSTELSLLADEVITVFSVVGMDSDWLMGERGNQKGKVPITYLELLN [SH3GLB1]
Ans. condition met

Qu. State whether the measured thermal stability score reaches -0.6, counting equality as reaching it, for MANRGPAYGLSREVQQKIEKQYDADLEQILIQWITTQCRKDVGRPQPGRENFQNWLKDGTVLCELINALYPEGQAPVKKIQASTMAFKQMEQISQFLQAAERYGINTTDIFQTVDLWEGKNMACVQRTLMNLGGLAVARDDGLFSGDPNWFPKKSKENPRNFSDNQLQEGKNVIGLQMGTNRGASQAGMTGYGMPRQIL [TAGLN2]
Ans. condition not met

Qu. State whether the measured thermal stability score reaches -0.6, counting equality as reaching it, for MNNKFDALKDDDSGDHDQNEENSTQKDGEKEKTERDKNQSSSKRKAVVPGPAEHPLQYNYTFWYSRRTPGRPTSSQSYEQNIKQIGTFASVEQFWRFYSHMVRPGDLTGHSDFHLFKEGIKPMWEDDANKNGGKWIIRLRKGLASRCWENLILAMLGEQFMVGEEICGAVVSVRFQEDIISIWNKTASDQATTARIRDTLRRVLNLPPNTIMEYKTHTDSIKMPGRLGPQRLLFQNLWKPRLNVP [EIF4E2]
Ans. condition not met

Qu. State whether the measured thermal stability score reaches -0.6, counting equality as reaching it, for MAEVSIDQSKLPGVKEVCRDFAVLEDHTLAHSLQEQEIEHHLASNVQRNRLVQHDLQVAKQLQEEDLKAQAQLQKRYKDLEQQDCEIAQEIQEKLAIEAERRRIQEKKDEDIARLLQEKELQEEKKRKKHFPEFPATRAYADSYYYEDGGMKPRVMKEAVSTPSRMAHRDQEWYDAEIARKLQEEELLATQVDMRAAQVAQDEEIARLLMAEEKKAYKKAKEREKSSLDKRKQDPEWKPKTAKAANSKSKESDEPHHSKNERPARPPPPIMTDGEDADYTHFTNQQSSTRHFSKSESSHKGFHYKH [CCDC50]
Ans. condition not met

Qu. State whether the measured thermal stability score reaches -0.6, counting equality as reaching it, for MPKRKAAGQGDMRQEPKRRSARLSAMLVPVTPEVKPKRTSSSRKMKTKSDMMEENIDTSAQAVAETKQEAVVEEDYNENAKNGEAKITEAPASEKEIVEVKEENIEDATEKGGEKKEAVAAEVKNEEEDQKEDEEDQNEEKGEAGKEDKDEKGEEDGKEDKNGNEKGEDAKEKEDGKKGEDGKGNGEDGKEKGEDEKEEEDRKETGDGKENEDGKEKGDKKEGKDVKVKEDEKEREDGKEDEGGNEEEAGKEKEDLKEEEEGKEEDEIKEDDGKKEEPQSIV [HMGN5]
Ans. condition not met

Qu. State whether the measured thermal stability score reaches -0.6, counting equality as reaching it, for MSRHEGVSCDACLKGNFRGRRYKCLICYDYDLCASCYESGATTTRHTTDHPMQCILTRVDFDLYYGGEAFSVEQPQSFTCPYCGKMGYTETSLQEHVTSEHAETSTEVICPICAALPGGDPNHVTDDFAAHLTLEHRAPRDLDESSGVRHVRRMFHPGRGLGGPRARRSNMHFTSSSTGGLSSSQSSYSPSNREAMDPIAELLSQLSGVRRSAGGQLNSSGPSASQLQQLQMQLQLERQHAQAARQQLETARNATRRTNTSSVTTTITQSTATTNIANTESSQQTLQNSQFLLTRLNDPKMSETERQSMESERADRSLFVQELLLSTLVREESSSSDEDDRGEMADFGAMGCVDIMPLDVALENLNLKESNKGNEPPPPPL [KCMF1]
Ans. condition not met

Qu. State whether the measured thermal stability score reaches -0.6, counting equality as reaching it, for MLQTLYDYFWWERLWLPVNLTWADLEDRDGRVYAKASDLYITLPLALLFLIVRYFFELYVATPLAALLNIKEKTRLRAPPNATLEHFYLTSGKQPKQVEVELLSRQSGLSGRQVERWFRRRRNQDRPSLLKKFREASWRFTFYLIAFIAGMAVIVDKPWFYDMKKVWEGYPIQSTIPSQYWYYMIELSFYWSLLFSIASDVKRKDFKEQIIHHVATIILISFSWFANYIRAGTLIMALHDSSDYLLESAKMFNYAGWKNTCNNIFIVFAIVFIITRLVILPFWILHCTLVYPLELYPAFFGYYFFNSMMGVLQLLHIFWAYLILRMAHKFITGKLVEDERSDREETESSEGEEAAAGGGAKSRPLANGHPILNNNHRKND [CERS2]
Ans. condition met

Qu. State whether the measured thermal stability score reaches -0.6, counting equality as reaching it, for MAADISESSGADCKGDPRNSAKLDADYPLRVLYCGVCSLPTEYCEYMPDVAKCRQWLEKNFPNEFAKLTVENSPKQEAGISEGQGTAGEEEEKKKQKRGGRGQIKQKKKTVPQKVTIAKIPRAKKKYVTRVCGLATFEIDLKEAQRFFAQKFSCGASVTGEDEIIIQGDFTDDIIDVIQEKWPEVDDDSIEDLGEVKK [DENR]
Ans. condition met

Qu. State whether the measured thermal stability score reaches -0.6, counting equality as reaching it, for MLGMIKNSLFGSVETWPWQVLSKGDKEEVAYEERACEGGKFATVEVTDKPVDEALREAMPKVAKYAGGTNDKGIGMGMTVPISFAVFPNEDGSLQKKLKVWFRIPNQFQSDPPAPSDKSVKIEEREGITVYSMQFGGYAKEADYVAQATRLRAALEGTATYRGDIYFCTGYDPPMKPYGRRNEIWLLKT [HEBP1]
Ans. condition not met
